Tested on: DU-145
Experiment: Cytotoxicity against prostate DU-145 cell line
Type: functional
Details: Homo sapiens
Measured attribute: GI50 (µM)
// units = µM; emit number, no label

The recorded GI50 for `COc1cc2c(c(OC)c1OC)OC[C@H]1[C@H](COC(C)=O)Cc3cc4c(cc3[C@@H]21)OCO4` is 70.8

The recorded GI50 for `COc1cc2c(c(OC)c1OC)OC[C@H]1[C@H](CO)Cc3cc4c(cc3[C@@H]21)OCO4` is 37.2

The recorded GI50 for `COc1cc([C@]23OC[C@H](Cc4cc5c(cc42)OCO5)[C@H]3CO)cc(OC)c1OC` is 4.47

The recorded GI50 for `COc1cc([C@]23OC[C@H](Cc4cc5c(cc42)OCO5)[C@@H]3C)cc(OC)c1OC` is 0.479

The recorded GI50 for `COc1cc([C@]23OC[C@H](Cc4cc5c(cc42)OCO5)[C@@H]3CO)cc(OC)c1OC` is 2.63

The recorded GI50 for `COc1cc([C@]23OC[C@H](Cc4cc5c(cc42)OCO5)[C@@H]3COC(C)=O)cc(OC)c1OC` is 4.57

The recorded GI50 for `COc1ccc([C@]23OC[C@H](Cc4cc(OC)c(OC)cc42)[C@@H]3C)cc1OC` is 3.89

The recorded GI50 for `COc1cc2c(cc1OC)[C@]1(c3cc(OC)c(OC)c(OC)c3)OC[C@H](C2)[C@@H]1CO` is 30.2

The recorded GI50 for `COc1cc([C@@H]2c3cc4c(cc3[C@H]3OC[C@@H]2[C@@H]3CO)OCO4)cc(OC)c1OC` is 30.2

The recorded GI50 for `COc1cc([C@@H]2c3cc4c(cc3[C@@H]3OC[C@H]2[C@@H]3CO)OCO4)cc(OC)c1OC` is 39.8

The recorded GI50 for COc1cc2c(cc1OC)C1(c3cc(OC)c(OC)c(OC)c3)OCC13C1COC2C13 (stereo not given) is 29.5

The recorded GI50 for `COc1cc2c(cc1OC)[C@H]1c3cc(OC)c(OC)c(OC)c3OC[C@H]1[C@H](CO)C2` is 22.9

====

System: SNB-75
Test: Cytotoxicity against prostate CNS SNB-75 cell line
Type: functional
Conditions: Homo sapiens, in the assay text read “CNS” for “prostate CNS”
Measured attribute: GI50

The recorded GI50 for `COc1cc2c(c(OC)c1OC)OC[C@H]1[C@H](CO)Cc3cc4c(cc3[C@@H]21)OCO4` is 42.7 µM

The recorded GI50 for `COc1cc2c(cc1OC)[C@H]1c3cc(OC)c(OC)c(OC)c3OC[C@H]1[C@H](CO)C2` is 3.63 µM

The recorded GI50 for `COc1cc([C@]23OC[C@H](Cc4cc5c(cc42)OCO5)[C@@H]3COC(C)=O)cc(OC)c1OC` is 2 µM

The recorded GI50 for `COc1cc([C@]23OC[C@H](Cc4cc5c(cc42)OCO5)[C@@H]3CO)cc(OC)c1OC` is 2.69 µM

The recorded GI50 for `COc1cc2c(c(OC)c1OC)OC[C@@H]1[C@H]2c2cc3c(cc2C[C@H]1C)OCO3` is 12.3 µM

====

Please provide measured GI50 for the entries that follow.
Test system: NCI-H322M
Assay: Cytotoxicity against lung […] cell line
Type: functional
Conditions: Homo sapiens
// units = µM; emit number, no label

The recorded GI50 for `COc1cc([C@]23OC[C@H](Cc4cc5c(cc42)OCO5)[C@@H]3CO)cc(OC)c1OC` is 6.17

The recorded GI50 for `COc1cc([C@]23OC[C@H](Cc4cc5c(cc42)OCO5)[C@@H]3C)cc(OC)c1OC` is 2.14

The recorded GI50 for `COc1cc2c(cc1OC)[C@]1(c3cc(OC)c(OC)c(OC)c3)OC[C@H](C2)[C@@H]1CO` is 43.7

The recorded GI50 for `COc1cc([C@]23OC[C@H](Cc4cc5c(cc42)OCO5)[C@@H]3COC(C)=O)cc(OC)c1OC` is 4.37

The recorded GI50 for `COc1cc2c(cc1OC)[C@H]1c3cc(OC)c(OC)c(OC)c3OC[C@H]1[C@H](CO)C2` is 8.71

The recorded GI50 for `COc1cc2c(c(OC)c1OC)OC[C@H]1[C@H](CO)Cc3cc4c(cc3[C@@H]21)OCO4` is 47.9

====

Please provide measured GI50 for the entries that follow.
Tested on: OVCAR-3
Test: Cytotoxicity against ovarian OVCAR-3 cell line
Type: functional
Settings: Homo sapiens

The recorded GI50 for COc1cc2c(cc1OC)C1(c3cc(OC)c(OC)c(OC)c3)OCC13C1COC2C13 (stereo not given) is 30.2 µM

The recorded GI50 for `COc1cc2c(c(OC)c1OC)OC[C@@H]1[C@H]2c2cc3c(cc2C[C@H]1C)OCO3` is 33.1 µM

The recorded GI50 for `COc1cc([C@]23OC[C@H](Cc4cc5c(cc42)OCO5)[C@@H]3COC(C)=O)cc(OC)c1OC` is 2.14 µM

The recorded GI50 for COc1ccc(C23OCC24C2COC(c5cc(OC)c(OC)cc53)C24)cc1OC (stereo not given) is > 100 µM

The recorded GI50 for `COc1cc([C@]23OC[C@H](Cc4cc5c(cc42)OCO5)[C@H]3CO)cc(OC)c1OC` is 0.182 µM

The recorded GI50 for `COc1cc([C@]23OC[C@H](Cc4cc5c(cc42)OCO5)[C@@H]3C)cc(OC)c1OC` is 0.186 µM

The recorded GI50 for `COc1cc2c(cc1OC)[C@]1(c3cc(OC)c(OC)c(OC)c3)OC[C@H](C2)[C@@H]1CO` is 24 µM

The recorded GI50 for `COc1cc2c(c(OC)c1OC)OC[C@H]1[C@H](CO)Cc3cc4c(cc3[C@@H]21)OCO4` is 25.1 µM

The recorded GI50 for `COc1cc2c(c(OC)c1OC)OC[C@H]1[C@H](COC(C)=O)Cc3cc4c(cc3[C@@H]21)OCO4` is 56.2 µM

The recorded GI50 for COc1cc(C23OCC24C2COC(c5cc6c(cc53)OCO6)C24)cc(OC)c1OC (stereo not given) is < 0.01 µM

The recorded GI50 for `COc1cc2c(cc1OC)[C@H]1c3cc(OC)c(OC)c(OC)c3OC[C@H]1[C@H](CO)C2` is 15.1 µM

The recorded GI50 for `COc1ccc([C@]23OC[C@H](Cc4cc(OC)c(OC)cc42)[C@@H]3C)cc1OC` is 2.4 µM

The recorded GI50 for `COc1cc([C@]23OC[C@H](Cc4cc5c(cc42)OCO5)[C@@H]3CO)cc(OC)c1OC` is 1.45 µM

The recorded GI50 for `COc1cc([C@@H]2c3cc4c(cc3[C@@H]3OC[C@H]2[C@@H]3CO)OCO4)cc(OC)c1OC` is 14.5 µM

The recorded GI50 for `COc1cc([C@@H]2c3cc4c(cc3[C@H]3OC[C@@H]2[C@@H]3CO)OCO4)cc(OC)c1OC` is 24 µM

====

System: SF-539
Test: Cytotoxicity against CNS SF-539 cell line
Format: functional
Details: Homo sapiens
Please provide measured GI50 for the entries that follow.
// units = µM; emit number, no label

The recorded GI50 for `COc1cc([C@]23OC[C@H](Cc4cc5c(cc42)OCO5)[C@H]3CO)cc(OC)c1OC` is 3.89

The recorded GI50 for `COc1cc([C@]23OC[C@H](Cc4cc5c(cc42)OCO5)[C@@H]3COC(C)=O)cc(OC)c1OC` is 1.74

The recorded GI50 for `COc1cc([C@]23OC[C@H](Cc4cc5c(cc42)OCO5)[C@H]3COC(C)=O)cc(OC)c1OC` is 19.1

The recorded GI50 for `COc1cc([C@@H]2c3cc4c(cc3[C@@H]3OC[C@H]2[C@@H]3CO)OCO4)cc(OC)c1OC` is 15.5

The recorded GI50 for `COc1cc([C@]23OC[C@H](Cc4cc5c(cc42)OCO5)[C@@H]3CO)cc(OC)c1OC` is 2.51

The recorded GI50 for `COc1cc2c(c(OC)c1OC)OC[C@H]1[C@H](CO)Cc3cc4c(cc3[C@@H]21)OCO4` is 20.9

The recorded GI50 for `COc1cc([C@@H]2c3cc4c(cc3[C@H]3OC[C@@H]2[C@@H]3CO)OCO4)cc(OC)c1OC` is 17.8

The recorded GI50 for `COc1cc2c(cc1OC)[C@H]1c3cc(OC)c(OC)c(OC)c3OC[C@H]1[C@H](CO)C2` is 24.5

The recorded GI50 for `COc1ccc([C@]23OC[C@H](Cc4cc(OC)c(OC)cc42)[C@@H]3C)cc1OC` is 1.95

The recorded GI50 for `COc1cc2c(c(OC)c1OC)OC[C@H]1[C@H](COC(C)=O)Cc3cc4c(cc3[C@@H]21)OCO4` is 57.5

The recorded GI50 for COc1cc2c(cc1OC)C1(c3cc(OC)c(OC)c(OC)c3)OCC13C1COC2C13 (stereo not given) is 31.6

The recorded GI50 for `COc1cc2c(cc1OC)[C@]1(c3cc(OC)c(OC)c(OC)c3)OC[C@H](C2)[C@@H]1CO` is 17.8

The recorded GI50 for `COc1cc2c(c(OC)c1OC)OC[C@@H]1[C@H]2c2cc3c(cc2C[C@H]1C)OCO3` is 20.9

Hey, just so you know, these numbers are from ChEMBL document CHEMBL1136739.
